biological target: A/PR/8/34-PA/I38T neuraminidase (NA) (Influenza A virus, UniProt P03468)
PARAMETER_MEASURED: pIC50
Entry type: numeric. Quantity: pIC50, the -log10 of concentration in molar units.

Incoming: Can you look up the measured pIC50 of `CCC(CC)[C@H](NC(C)=O)[C@@H]1[C@H](O)[C@@H](C(=O)O)C[C@H]1N=C(N)N` for me?
Outgoing: 10.05

---

biological target: A/Chiba/1017/2009 (NA H275Y) neuraminidase (NA) (Influenza A virus, UniProt C7FH46, H275Y)
PARAMETER_MEASURED: pIC50
Entry type: numeric. Quantity: pIC50, the -log10 of concentration in molar units.

Incoming: Param readout = pIC50; param system = A/Chiba/1017/2009 (NA H275Y) neuraminidase (NA) (Influenza A virus, UniProt C7FH46, H275Y); param query = CCC(CC)[C@H](NC(C)=O)[C@@H]1[C@H](O)[C@@H](C(=O)O)C[C@H]1N=C(N)N [Peramivir, peramivir] ; response: value
Outgoing: 7.55

---

target: B/Perth/211/2001-197E (NA D197E) neuraminidase (NA) (Influenza B virus, UniProt Q3S340, D197E)
PARAMETER_MEASURED: pIC50
Entry type: numeric. Quantity: pIC50, the -log10 of concentration in molar units.

Incoming: Can you look up the measured pIC50 of `CCC(CC)[C@H](NC(C)=O)[C@@H]1[C@H](O)[C@@H](C(=O)O)C[C@H]1N=C(N)N` for me?
Outgoing: 7.79

---

target: A/Kagoshima/4/2012 (NA 292R wild-type) neuraminidase (NA) (Influenza A virus, UniProt J9TKI7)
PARAMETER_MEASURED: pIC50
Entry type: numeric. Quantity: pIC50, the -log10 of concentration in molar units.

Incoming: Can you look up the measured pIC50 of `CCC(CC)[C@H](NC(C)=O)[C@@H]1[C@H](O)[C@@H](C(=O)O)C[C@H]1N=C(N)N` for me?
Outgoing: 10.00

---

molecular target: B/Perth/211/2001-197D (NA 197D wild-type) neuraminidase (NA) (Influenza B virus, UniProt Q3S340); assay type: biochemical; details: read-out: IC50
PARAMETER_MEASURED: pIC50
Entry type: numeric. Quantity: pIC50, the -log10 of concentration in molar units.

Incoming: Can you look up the measured pIC50 of `CCC(CC)[C@H](NC(C)=O)[C@@H]1[C@H](O)[C@@H](C(=O)O)C[C@H]1N=C(N)N` for me?
Outgoing: 9.40

---

test system: A/Chiba/1017/2009 (NA H275Y); format: cell-based, influenza A(H1N1)pdm09 virus; settings: read-out: IC50, focus reduction
PARAMETER_MEASURED: pIC50
Entry type: numeric. Quantity: pIC50, the -log10 of concentration in molar units.

Incoming: Can you look up the measured pIC50 of `O=C1c2c(O)c(=O)ccn2N([C@@H]2c3ccccc3SCc3c2ccc(F)c3F)[C@@H]2COCCN12` for me?
Outgoing: 9.28

---

system: A/Kagoshima/2/2012 (NA R292K); assay type: cell-based, influenza A(H3N2) virus; settings: read-out: IC50, focus reduction
PARAMETER_MEASURED: IC50 (nM)
# number only, unit nM dropped from output

Incoming: Param readout = IC50; param system = A/Kagoshima/2/2012 (NA R292K); param query = O=C1c2c(O)c(=O)ccn2N([C@@H]2c3ccccc3SCc3c2ccc(F)c3F)[C@@H]2COCCN12 [Baloxavir, baloxavir acid] ; response: value
Outgoing: 0.59

---

molecular target: A/Kagoshima/2/2012 (NA R292K) neuraminidase (NA) (Influenza A virus, UniProt J9TKI7, R292K)
PARAMETER_MEASURED: IC50 (nM)
# number only, unit nM dropped from output

Incoming: Can you look up the measured IC50 of CCC(CC)[C@H](NC(C)=O)[C@@H]1[C@H](O)[C@@H](C(=O)O)C[C@H]1N=C(N)N [Peramivir, peramivir] for me?
Outgoing: 35.2

---

molecular target: A/PR/8/34 (PA 38I wild-type) neuraminidase (NA) (Influenza A virus)
PARAMETER_MEASURED: IC50 (nM)
# number only, unit nM dropped from output

Incoming: Can you look up the measured IC50 of `CCC(CC)[C@H](NC(C)=O)[C@@H]1[C@H](O)[C@@H](C(=O)O)C[C@H]1N=C(N)N` for me?
Outgoing: 0.09
